# Tested on: BMP-2 promoter
# Assay: ABA assay: BMP-2 promoter-luciferase reporter in 2T3-BMP-2-LUC osteoblast cells
# Assay type: cell-based, mouse
# Test Parameters: Experiment 1; 50 μg/ml
% 59-0008 Response: recorded values
Entry format: amount then unit.

Below are worked cases with known answers.
CC[C@H](C)C(=O)O[C@H]1CCC=C2C=C[C@H](C)[C@H](CC[C@@H]3C[C@@H](O)CC(=O)O3)[C@H]21 [Mevastatin, mevastatin]
153.110%
CC(C)n1c(/C=C/C(O)CC(O)CC(=O)O)c(-c2ccc(F)cc2)c2ccccc21 (stereo not drawn) [Fluvastatin, fluvastatin]
−22.660%

Input: Entry CCC(C)(C)C(=O)O[C@H]1C[C@@H](C)C=C2C=C[C@H](C)[C@H](CC[C@@H]3C[C@@H](O)CC(=O)O3)[C@H]21 [Simvastatin, simvastatin] has what % 59-0008 Response?
Output: −22.950%

* * *

Each item that follows carries a reported New Bone Area.
# System: neonatal mouse calvaria
# Assay: Neonatal mouse calvaria assay (in vitro bone formation)
# Type: cell-based
# Test Parameters: other bisphosphonates; 100 μM
The answer is to be given in mm^2 × 10^−3; state only the numeric part.

Guide cases for New Bone Area, answers given:
O=P(O)(O)C(O)(Cc1cccnc1)P(=O)(O)O [Risedronate, risedronate]
7.3
NCCC(O)(P(=O)(O)O)P(=O)(O)O [Pamidronate, pamidronate]
5.8

Continue with the next compound.
Input: Param item = O=P(O)(O)C(Cl)(Cl)P(=O)(O)O [Clodronate, clodronate] ; retrieve measured New Bone Area.
Output: 4.6

* * *

# Tested on: BMP-2 promoter
# Assay: ABA assay: BMP-2 promoter-luciferase reporter in 2T3-BMP-2-LUC osteoblast cells
# Type: cell-based, mouse
# Test Parameters: Experiment 1; 0.78125 μg/ml
Classification field: enter rule met for % 59-0008 Response values not below 40%, rule not met for values below it.

Solved entries (count: 5):
CCC(C)(C)C(=O)O[C@H]1C[C@@H](C)C=C2C=C[C@H](C)[C@H](CC[C@@H]3C[C@@H](O)CC(=O)O3)[C@H]21
rule met
CC[C@H](C)C(=O)O[C@H]1C[C@@H](C)C=C2C=C[C@H](C)[C@H](CC[C@@H]3C[C@@H](O)CC(=O)O3)[C@H]21
rule not met
CC(C)n1c(/C=C/C(O)CC(O)CC(=O)O)c(-c2ccc(F)cc2)c2ccccc21 (stereo not drawn)
rule met
CC[C@H](C)C(=O)O[C@H]1C[C@H](O)C=C2C=C[C@H](C)[C@H](CC[C@@H](O)C[C@@H](O)CC(=O)O)[C@H]21
rule not met
CCC(C)(C)C(=O)O[C@H]1C[C@@H](C)C=C2C=C[C@H](C)[C@H](CC[C@@H](O)C[C@@H](O)CC(=O)O)[C@H]21 [Hydrolyzed simvastatin, hydrolyzed simvastatin]
rule not met

Now let's try a different one.
Input: Say whether `CC[C@H](C)C(=O)O[C@H]1CCC=C2C=C[C@H](C)[C@H](CC[C@@H]3C[C@@H](O)CC(=O)O3)[C@H]21` shows % 59-0008 Response of 40% or more.
Output: rule not met

* * *

# Tested on: BMP-2 promoter
# Assay: ABA assay: BMP-2 promoter-luciferase reporter in 2T3-BMP-2-LUC osteoblast cells
# Format: cell-based, mouse
# Test Parameters: Experiment 1; 12.5 μg/ml
Measurement Type: Fold increase over negative control
Number plus unit, in that order.

Input: Suppose we examine the molecule CC[C@H](C)C(=O)O[C@H]1C[C@H](O)C=C2C=C[C@H](C)[C@H](CC[C@@H](O)C[C@@H](O)CC(=O)O)[C@H]21 [Pravastatin, pravastatin] ; what Fold increase over negative control value has been reported?
Output: 1.049 fold

Input: Recorded Fold increase over negative control for CC[C@H](C)C(=O)O[C@H]1CCC=C2C=C[C@H](C)[C@H](CC[C@@H]3C[C@@H](O)CC(=O)O3)[C@H]21 [Mevastatin, mevastatin] , please?
Output: 8.293 fold

Input: Quick one: Fold increase over negative control for CCC(C)(C)C(=O)O[C@H]1C[C@@H](C)C=C2C=C[C@H](C)[C@H](CC[C@@H](O)C[C@@H](O)CC(=O)O)[C@H]21 [Hydrolyzed simvastatin, hydrolyzed simvastatin] ?
Output: 11.3 fold

Input: I have this molecule here, CC[C@H](C)C(=O)O[C@H]1C[C@@H](C)C=C2C=C[C@H](C)[C@H](CC[C@@H]3C[C@@H](O)CC(=O)O3)[C@H]21 [Lovastatin, lovastatin] , and I need its recorded Fold increase over negative control.
Output: 7.809 fold

Input: Which Fold increase over negative control value is on record for CC(C)n1c(/C=C/C(O)CC(O)CC(=O)O)c(-c2ccc(F)cc2)c2ccccc21 (centres unmarked) [Fluvastatin, fluvastatin] ?
Output: 8.281 fold

* * *

# Tested on: BMP-2 promoter
# Assay: ABA assay: BMP-2 promoter-luciferase reporter in 2T3-BMP-2-LUC osteoblast cells
# Type: cell-based, mouse
# Test Parameters: Experiment 1; 0.390625 μg/ml
# reported % 59-0008 Response; entries follow
The reply should be a number in %, with the unit left off.

CCC(C)(C)C(=O)O[C@H]1C[C@@H](C)C=C2C=C[C@H](C)[C@H](CC[C@@H](O)C[C@@H](O)CC(=O)O)[C@H]21 [Hydrolyzed simvastatin, hydrolyzed simvastatin]
1.520
CC[C@H](C)C(=O)O[C@H]1C[C@@H](C)C=C2C=C[C@H](C)[C@H](CC[C@@H]3C[C@@H](O)CC(=O)O3)[C@H]21
27.830

Input: Returns the measured % 59-0008 Response for the input compound. Input: CC(C)n1c(/C=C/C(O)CC(O)CC(=O)O)c(-c2ccc(F)cc2)c2ccccc21 (stereo not drawn)
Output: 28.080

* * *

# System: BMP-2 promoter
# Assay: ABA assay: BMP-2 promoter-luciferase reporter in 2T3-BMP-2-LUC osteoblast cells
# Type: cell-based, mouse
# Test Parameters: Experiment 1; 50 μg/ml
Measurement Type: % 59-0008 Response
# output: number + unit

Answered cases to consult:
CC[C@H](C)C(=O)O[C@H]1C[C@H](O)C=C2C=C[C@H](C)[C@H](CC[C@@H](O)C[C@@H](O)CC(=O)O)[C@H]21 [Pravastatin, pravastatin]
5.000%
CC[C@H](C)C(=O)O[C@H]1C[C@@H](C)C=C2C=C[C@H](C)[C@H](CC[C@@H]3C[C@@H](O)CC(=O)O3)[C@H]21 [Lovastatin, lovastatin]
−22.510%

Now for the molecule whose % 59-0008 Response we want.
Input: Fill blank: measured % 59-0008 Response of the molecule CCC(C)(C)C(=O)O[C@H]1C[C@@H](C)C=C2C=C[C@H](C)[C@H](CC[C@@H](O)C[C@@H](O)CC(=O)O)[C@H]21 [Hydrolyzed simvastatin, hydrolyzed simvastatin] is ____.
Output: 44.520%

meta.source: patent US6642216B2
